# ASSAY_DETAILS: A CellTox Green Cytotoxicity Assay to monitor cytotoxicity in HepG2 cells - 8 hour (AID 1224890); further: nearly all actives have a fitted effect of over 45% in size
# APPLIED_CONDITIONS: CellTox Green fluorescence; series mostly up to 76.8 µM
Results filed as inconclusive are left out. Active and inactive are the calls of the source. The call rests on the fitted dose curve; in most records, active means well fitted activation curve with a large enough effect in the repeat runs; inconclusive means weak or mixed curves; inactive means flat fitted curve, though single readings scatter.
RECORDED_METRIC: cytotoxicity increase

Past entries and their recorded results:
CCCCCCCCCOC(C)=O : inactive
CC(CCO)CCc1ccccc1 (configuration not stated) : inactive
CC(=O)[C@H]1CC[C@H]2[C@@H]3C[C@H](C)C4=CC(=O)CC[C@]4(C)[C@H]3[C@@H](O)C[C@]12C : inactive
CO[C@H]1O[C@H](CO)[C@@H](O)[C@H](O)[C@H]1O : inactive
O=C(O)c1ccc(CO)o1 : inactive
C[Si]1(C)O[Si](C)(C)O[Si](C)(C)O1 : inactive

### Prompt Requested field: cytotoxicity increase. Item: CC(C)c1nnc2ccc(-c3ocnc3-c3cc(F)ccc3F)cn12
### Response inactive

* * *

# ASSAY_DETAILS: qHTS assay to identify small molecule agonists of the NFkB signaling pathway (AID 1159509)
# APPLIED_CONDITIONS: NFkB-bla ME-180 cells, beta-lactamase FRET ratio, 5 h; series mostly up to 61 µM
Results filed as inconclusive are left out. The source made the active and inactive calls. Calls follow the shape of the dose curve; as a rule, active = well fitted curve in the direction sought with a large enough effect in the signal ratio in the repeat runs (not every such curve was filed as active); inconclusive = weak or mixed curves, or a change in a side signal; inactive = no such curve, though single readings can be large or run the other way; the % refers to the signal ratio.
RECORDED_METRIC: activation

Past entries and their recorded results:
CC1CC(O)CC(C)(C)C1 (stereo unspecified) : inactive
CNC(=S)NC : inactive
O=C(CCCN1CCN(c2ccc(F)cc2)CC1)NC1c2ccccc2CSc2ccccc21 (stereo unspecified) : inactive
CCc1c2c(nc3ccc(OC(=O)N4CCC(N5CCCCC5)CC4)cc13)-c1cc3c(c(=O)n1C2)COC(=O)[C@]3(O)CC : inactive
Cc1c(C(=O)NN2CCCCC2)nn(-c2ccc(Cl)cc2Cl)c1-c1ccc(Cl)cc1 : inactive

### Prompt Quick one: activation for CO[C@@]12[C@H](COC(N)=O)C3=C(C(=O)C(C)=C(N)C3=O)N1C[C@@H]1N[C@@H]12 ?
### Response inactive

### Prompt Try NCC1CCCC(CN)C1 (stereo unspecified) next.
### Response inactive

### Prompt Try this compound next: CC1(C)C(=O)N(Br)C(=O)N1Cl
### Response inactive

### Prompt Note, next up: CCCCCC=CCC=CCCCCCCCC(=O)OCC
### Response inactive

### Prompt Entry N#C[C@@H]1C[C@@H]2C[C@@H]2N1C(=O)[C@@H](N)C12CC3CC(CC(O)(C3)C1)C2 please
### Response inactive

### Prompt // query: C[N+]1(C)CCC(=C(c2ccccc2)c2ccccc2)CC1
### Response inactive

* * *

# ASSAY_DETAILS: qHTS assay to identify small molecule antagonists of the estrogen related receptor (ERR) signaling pathway from Tox21 library - cell viability counter screen (AID 1224834); further: nearly all actives have a fitted effect of over 30% in size
# APPLIED_CONDITIONS: ERR reporter cells viability, CellTiter-Fluor, 17.5 h; series mostly up to 92.4 µM
# Protocol: National Center for Advancing Translational Sciences [NCATS] NIH Chemical Genomics Center [NCGC] U.S. Environmental Protection Agency [EPA] National Institutes of Environmental Health Sciences [NIEHS] National Toxicology Program [NTP] […] The ERR cells were dispensed at 2,000 cells/5 ul/well in 1536-well white plates using a Multidrop dispenser. […] After 30-minute incubation at 37 C/5% CO2, the fluorescence intensity in the plates was measured using a ViewLux plate reader.
Records with an inconclusive call do not appear. Active and inactive are the calls of the source. The call rests on the fitted dose curve; in most records, active means well fitted cell-killing curve with a large enough effect in the repeat runs; inconclusive means weak or mixed curves; inactive means flat fitted curve, though single readings scatter.
Assign a class; possible classes are t = active, f = inactive

### Prompt Outcome? CCCCCCOC(=O)CCCCCCCC(=O)OCCCCCC
### Response f

### Prompt Check Cc1ccc(S)cc1 too.
### Response f

### Prompt Let us now turn to Cc1cc2nc3ccc(=[N+](C)C)cc-3sc2cc1N
### Response t

### Prompt Now consider CC(=O)Nc1ccccc1C .
### Response f

### Prompt Same lookup for CCCCN(CCCC)CCCOC(=O)c1ccc(N)cc1 , please.
### Response f

### Prompt O=C(O)c1cccc(O)c1 ?
### Response f

### Prompt Try the compound CCCCCCCCCCCCCCC[C@H](O)[C@@H](N)CO
### Response f

### Prompt Lookup CCc1cccc(N(C)C(N)=Nc2cccc3ccccc23)c1
### Response f

### Prompt Query CNC(=S)NC next
### Response f

### Prompt Next record, please: O=C(CCCCCCCCC#CI)Oc1ccccc1
### Response f

### Prompt Again, but for CC(C)C(=O)O
### Response f

### Prompt Then CN1CCN(CCCN2c3ccccc3Sc3ccc(S(=O)(=O)N(C)C)cc32)CC1 ?
### Response t

### Prompt Queued: O=C(Nc1ccc([N+](=O)[O-])cc1)Nc1ccc([N+](=O)[O-])cc1
### Response f

### Prompt And for CCC1(C)CC(=O)NC1=O (stereo not drawn) ?
### Response f

### Prompt Quick one: O=S(=O)(c1ccccc1)c1ccc(Cl)cc1
### Response f

### Prompt Ok, now NC(=O)Nc1ccc(Cl)cc1
### Response f

### Prompt Note, next up: CO[C@H]1O[C@H](CO)[C@@H](O)[C@H](O)[C@H]1O
### Response f

### Prompt Consider next the compound CCC(C(=O)OCCOCCN(CC)CC)c1ccccc1 (stereo not drawn) in the same way.
### Response f

### Prompt For COc1ccccc1N=Nc1c(S(=O)(=O)O)cc2cc(S(=O)(=O)O)cc(NC(C)=O)c2c1O then?
### Response t

### Prompt CCc1nn(CCCN2CCN(c3cccc(Cl)c3)CC2)c(=O)n1CCOc1ccccc1 , same question.
### Response t

### Prompt Subsequent entry: CCC(C)=O
### Response f

### Prompt What about O=S1OCCO1 ?
### Response f

### Prompt Another compound to look at: C=C(C)C(=O)OCCOC(=O)CC(C)=O
### Response f

### Prompt Try CCOC(=O)c1ccccc1OC next.
### Response f

### Prompt Consider next the compound O=C(N/N=C/c1ccc([N+](=O)[O-])o1)c1ccc(O)cc1 in the same way.
### Response t

### Prompt Follow-up item: O=C(O)c1c(O)c(-c2ccccc2)nc2ccccc12
### Response f

### Prompt Entry to check: OC(CCCN1CCCCC1)(c1ccccc1)c1ccccc1
### Response f

### Prompt Please give the result for O=C(O)c1cccnc1C(=O)O too.
### Response f
